- protocol: Confirmation Concentration-Response Assay for Inhibitors of Tau Fibril Formation, Total Fluorescence Counterscreen for Fluorescence Polarization
- condition: Alexa594-tau K18 total fluorescence counterscreen, interference, tau K18 with P301L mutation; series mostly up to 100 µM
Results filed as inconclusive are left out. Activity calls are given as the source filed them. Calls follow the shape of the dose curve; as a rule, active = well fitted curve in the direction sought with a large enough effect; inconclusive = small, poorly fitted or top-dose-only effect, or another doubt; inactive = no such curve, though single readings can be large or run the other way.
Outcomes: active, inactive

> print(dat)
                                    compound  group.label
 1  O=C(Nc1nc2ccc(S(=O)(=O)N3CCCC3)cc2s1)c1ccc(F)cc1     inactive
 2     COc1ccc2[nH]c(=O)c(CNc3ccccc3OC)cc2c1     inactive
 3  O=C(CSc1nc2scc(-c3ccco3)c2c(=O)n1-c1ccccc1)N1CCOCC1     inactive
 4  CCOC(=O)c1nn(-c2cccc(C(F)(F)F)c2)c(=O)c2c(N)scc12       active
 5  CCOC(=O)c1nn(-c2ccc(OC)cc2)c(=O)c2c(NC(=O)Cc3ccccc3)scc12     inactive
 6               CCOC(=O)c1c(N)sc2c1CN(C)CC2     inactive
 7  Nc1scc2c(C(=O)N3CCOCC3)nn(-c3ccccc3)c(=O)c12     inactive
 8  Cc1ccc(N2C(=O)SC(Cc3ccccc3)C2=O)cc1 (stereo not drawn)     inactive
 9                Cn1sc(NC(=O)c2ccccc2)nc1=O     inactive
10  O=C(O)CC1S/C(=N/N=C/c2ccc(-c3ccc(Cl)cc3[N+](=O)[O-])o2)NC1=O (stereo not drawn)     inactive
11  Cc1ccc(-c2ccc(/C=N/N=C3/NC(=O)C(CC(=O)O)S3)o2)c([N+](=O)[O-])c1 (stereo not drawn)     inactive
12       Cc1ccc(C2=NNC(=Nc3ccc(F)cc3)SC2)cc1     inactive
13                 Nc1c(-c2ccncc2)cc[nH]c1=O     inactive
14  O=C(O)CC1S/C(=N/N=C/c2ccc(-c3ccccc3[N+](=O)[O-])o2)NC1=O (stereo not drawn)     inactive
15      Nc1nc2cc(S(=O)(=O)NC3=NCCCCC3)ccc2s1     inactive
16  CCOC(=O)c1nn(-c2ccccc2F)c(=O)c2c(N)scc12     inactive
17  CCOC(=O)c1ccc(-n2nc(C(=O)OCC)c3csc(N)c3c2=O)cc1     inactive
18  CCN(c1ccccc1)S(=O)(=O)c1nnc(NC(=O)C(C)(C)C)s1     inactive
19         Nc1scc2c(CO)nn(-c3ccccc3)c(=O)c12     inactive
20  O=S(=O)(c1ccc(N=C2NN=C(c3cc(F)ccc3F)CS2)cc1)N1CCOCC1     inactive
21  COc1ccc2c(c1)c(CC(=O)Nc1ccc(C(C)=O)cc1)c(C)n2C(=O)c1ccc(Cl)cc1     inactive
22                    COc1ncc(-c2ccccc2)cc1N     inactive
23  Cc1ccc(C(=O)Nc2nc(=O)n(C(=O)C3CC3)s2)cc1     inactive
